assay: cell survival after pyrene fatty acid photosensitization – ZR-82 cells, Analyticon library, screen 2, phospholipid biosynthesis inhibitor project, primary screen (AID 1347383); details: ZR-82 CHO cells, pyrene-fatty acid UV killing, CellTiter Blue, at 10 µM; peroxisome-deficient CHO-K1 variant, with DGAT-1, DGAT-2 and ACAT inhibitors unless noted;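 also: survival reflects blocked phospholipid synthesis cutting uptake of the phototoxic fatty acid; compound and fatty acid exposure 3 h then viability read next day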
Calls of active or inactive are those of the source.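 The calls were made as follows: active = cell survival after UV exposure 2 SD above solvent-only control wells at 10 µM, confirmed on one or two repeats; inactive = the rest.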
ENDPOINT LABEL: outcome

Worked examples follow.
O=C1N[C@@H](Cc2ccccc2)CN2CCCC[C@@H]12 = inactive
CN1C(=O)c2ccccc2NC(=O)[C@]12O[C@@H]2c1ccccc1 = inactive
CO[C@@H]1[C@@H](O)[C@H](C)O[C@@H](O[C@H]2CC[C@]3(C)C4CC[C@]5(C)[C@H](C6=CC(=O)OC6)CC[C@]5(O)C4CC[C@@H]3C2)[C@H]1OC(C)=O (stereo partly drawn) = inactive
CC(C)(C)C1(O)C[C@@H]2OC(=O)C[C@@]23C(=O)O[C@@H]2OC(=O)[C@@H](O)[C@]213 (stereo partly drawn) = inactive
CC(C)[C@@H](C)/C=C/[C@@H](C)[C@H]1CC[C@@H]2[C@]1(C)CCC1[C@]23C=C[C@]2(C[C@@H](O)CC[C@]12C)OO3 (stereo partly drawn) = inactive

Prompt: Would you mind telling me what outcome value was observed for CC1=CC2/C=C(\C)CCC(O)C(O)/C=C/C(=O)C23C(=O)NC(CC(C)C)C3C1C (stereo not drawn) ?
Response: inactive
